System: VEGF-stimulated ADSC/ECFC co-culture, nuclear area imaging
Experiment Description: nuclear area loss in endothelial-stromal co-culture, dose response, cell-based, VEGF stimulation, IC50 (AID 1117324)
Activity calls are given as the source filed them. How the calls were made is not given here.
Pick from YES (active), NO (inactive) when you respond.

q: Tell me the assay call for CC=CC1C(C(=O)OCc2c(F)c(F)c(COC)c(F)c2F)C1(C)C (stereo unspecified) please.
a: NO

q: Then this molecule: Oc1c(Cl)cc(Cl)cc1Sc1cc(Cl)cc(Cl)c1O
a: NO

q: Cc1cc(=O)c2c(O)c3c(O)cc(=O)c4c3c3c(cc(O)c1c23)C(C)(C)C=4O ?
a: YES

q: Proceed to CCCCCCCC(=O)OCC(COC(=O)CCCCCCC)OC(=O)CCCCCCC
a: NO

q: Next: Cc1ccc([N+](=O)[O-])[c]2c1[O][Hg]2
a: YES

q: Follow-up item: COc1ccc(-c2ccc3cc(C(=O)O)ccc3c2)cc1C12CC3CC(CC(C3)C1)C2
a: NO
